molecular target: ABCG2 (Homo sapiens)
Sequence (Q9UNQ0 whole entry): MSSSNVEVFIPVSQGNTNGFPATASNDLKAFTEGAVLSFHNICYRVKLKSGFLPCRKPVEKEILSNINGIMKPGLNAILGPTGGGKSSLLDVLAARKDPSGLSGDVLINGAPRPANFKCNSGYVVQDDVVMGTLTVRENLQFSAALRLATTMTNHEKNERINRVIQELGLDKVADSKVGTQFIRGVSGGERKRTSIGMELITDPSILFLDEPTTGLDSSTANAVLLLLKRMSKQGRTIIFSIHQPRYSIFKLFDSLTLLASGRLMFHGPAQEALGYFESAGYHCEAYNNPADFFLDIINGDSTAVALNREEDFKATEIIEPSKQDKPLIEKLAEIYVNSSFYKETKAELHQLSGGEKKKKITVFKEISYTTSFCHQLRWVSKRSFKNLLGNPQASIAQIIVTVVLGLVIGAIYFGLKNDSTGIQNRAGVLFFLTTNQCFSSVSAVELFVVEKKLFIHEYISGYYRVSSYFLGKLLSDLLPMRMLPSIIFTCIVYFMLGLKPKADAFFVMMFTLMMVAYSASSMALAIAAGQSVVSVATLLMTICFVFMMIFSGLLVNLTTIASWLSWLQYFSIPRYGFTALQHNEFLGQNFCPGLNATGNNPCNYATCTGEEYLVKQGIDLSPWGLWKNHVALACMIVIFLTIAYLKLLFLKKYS
Endpoint: pIC50
Recall that pIC50 is obtained by taking minus log10 of the concentration measured in molar.

Name the recorded pIC50 of `CC(C)(C)c1cc(NC(=O)Nc2ccc(-c3cn4c(n3)sc3cc(OCCN5CCOCC5)ccc34)cc2)no1` , assay system ABCG2 (Homo sapiens).
7.15
